System: KRAS G12V-dependent Ba/F3 cells
Method: Ba/F3 proliferation assay, KRAS G12V;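 further: proliferation IC50 in KRAS G12V-dependent Ba/F3 cells read by AlamarBlue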
Format: cell-based
Study Conditions: Mus musculus, BaF3, 72 h, AlamarBlue
pIC50: −log10 of the molar value.
Measured Parameter: pIC50

A selection of reference data follows.
# lookup: pIC50 of `C[C@H](Oc1cc(-c2cccc(C(N)=O)c2)nc(-c2noc3c2CCC[C@@]32CCCc3sc(N)c(C#N)c32)n1)[C@@H]1CCCN1C`
7.72

Consider the compound shown here: `C[C@H](Oc1cc(-n2ccc(-c3cn([C@@H]4CCOC4)nn3)n2)nc(-c2noc3c2CCC[C@@]32CCCc3sc(N)c(C#N)c32)n1)[C@@H]1CCCN1C` What is its recorded pIC50?
8.52

// query pIC50 value for entry `C[C@H](Oc1cc(-n2nccc2-c2ccncc2)nc(-c2noc3c2CCC[C@@]32CCCc3sc(N)c(C#N)c32)n1)[C@@H]1CCCN1C`
7.72

Which value of pIC50 has been reported for `C[C@H](Oc1cc(N2C[C@H]3CN(C)C[C@H]3C2)nc(-c2noc3c2CCC[C@@]32CCCc3sc(N)c(C#N)c32)n1)[C@@H]1CCCN1C` in the records?
6.18

[I] C[C@H](Oc1cc(-c2ccn(CC(C)(C)O)n2)nc(-c2onc3c2CCC[C@@]32CCCc3sc(N)c(C#N)c32)n1)[C@@H]1CCCN1C
[II] C[C@H](Oc1cc(N2CCN[C@@H](C)C2)nc(-c2noc3c2CCC[C@@]32CCCc3sc(N)c(C#N)c32)n1)[C@@H]1CCCN1C
Between the two listed entries I and II , which has its pIC50 at the higher number? Identify your pick by its label.
I
(I: 7.89, II: 6.24)

---

Target Desc: KRAS (G12D)::SOS1 (Homo sapiens (Human), UniProt P01116, G12D)
Sequence (P01116 other isoform, or with tags, fused parts or gaps G12D): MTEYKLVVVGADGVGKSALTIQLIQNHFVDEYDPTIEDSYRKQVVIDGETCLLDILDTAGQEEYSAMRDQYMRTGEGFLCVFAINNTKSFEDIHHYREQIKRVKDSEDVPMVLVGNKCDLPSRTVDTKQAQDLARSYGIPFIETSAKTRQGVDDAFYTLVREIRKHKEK
Method: KRAS::SOS1 AlphaScreen binding assay, KRAS G12D
Measured Parameter: IC50 (nM)

Below, 4 compounds whose answers are already recorded.
What IC50 appears in the records for this compound with KRAS (G12D)::SOS1 (Homo sapiens (Human), UniProt P01116, G12D)? `CNC1CCN(c2cc(O[C@@H](C)[C@@H]3CCCN3C)nc(-c3noc4c3CCC[C@@]43CCCc4sc(N)c(C#N)c43)n2)CC1`
1

Entry `C[C@H](Oc1cc(N2CCN(C)CC2)nc(-c2noc3c2CCC[C@@]32CCCc3sc(N)c(C#N)c32)n1)[C@@H]1CCCN1[C@@H]1CCOC1` , system KRAS (G12D)::SOS1 (Homo sapiens (Human), UniProt P01116, G12D): what IC50 was measured?
1

What is its IC50 for KRAS (G12D)::SOS1 (Homo sapiens (Human), UniProt P01116, G12D)? Entry: `C[C@H](Oc1cc(-n2ccc(C(=O)N[C@H]3CCOC3)n2)nc(-c2onc3c2CCC[C@@]32CCCc3sc(N)c(C#N)c32)n1)[C@@H]1CCCN1C`
2

Hello, I am looking for reported IC50 with KRAS (G12D)::SOS1 (Homo sapiens (Human), UniProt P01116, G12D) for `C[C@@H]1CN(c2cc(O[C@@H](C)[C@@H]3CCCN3C)nc(-c3noc4c3CCC[C@@]43CCCc4sc(N)c(C#N)c43)n2)CCN1` . Could you help?
2

[1] C[C@H](Oc1cc(-c2cn(C)nn2)nc(-c2onc3c2CCC[C@@]32CCCc3sc(N)c(C#N)c32)n1)[C@@H]1CCCN1C
[2] C[C@H](Oc1cc(N2CCNC[C@]23CCOC3)nc(-c2onc3c2CCC[C@@]32CCCc3sc(N)c(C#N)c32)n1)[C@@H]1CCCN1C
Returns the identifier with the smallest measured IC50 among 1 and 2 . Could you answer with the label of the item you picked?
2
(2: 1 nM, 1: 2 nM)
